molecular target: plasma kallikrein (PKa) (Homo sapiens, UniProt P03952); construct: purchased R & D 2497-SE; assay: Inhibitory activity against plasma kallikrein in vitro (fluorescence intensity enzyme assay, Pro-Phe-Arg-AMC substrate); format: biochemical; details: plasma kallikrein enzyme assay, Pro-Phe-Arg-AMC substrate; read-out: PKa IC50
Sequence (P03952 391-638 limits assumed): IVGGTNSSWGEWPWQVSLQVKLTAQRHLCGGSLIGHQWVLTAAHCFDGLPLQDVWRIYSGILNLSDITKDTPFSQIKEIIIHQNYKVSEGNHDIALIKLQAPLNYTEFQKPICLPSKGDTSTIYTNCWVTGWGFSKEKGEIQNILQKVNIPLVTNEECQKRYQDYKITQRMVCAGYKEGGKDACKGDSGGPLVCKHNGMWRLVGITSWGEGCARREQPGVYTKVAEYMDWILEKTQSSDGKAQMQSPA
Sequence (P03952 20-390 partner limits assumed): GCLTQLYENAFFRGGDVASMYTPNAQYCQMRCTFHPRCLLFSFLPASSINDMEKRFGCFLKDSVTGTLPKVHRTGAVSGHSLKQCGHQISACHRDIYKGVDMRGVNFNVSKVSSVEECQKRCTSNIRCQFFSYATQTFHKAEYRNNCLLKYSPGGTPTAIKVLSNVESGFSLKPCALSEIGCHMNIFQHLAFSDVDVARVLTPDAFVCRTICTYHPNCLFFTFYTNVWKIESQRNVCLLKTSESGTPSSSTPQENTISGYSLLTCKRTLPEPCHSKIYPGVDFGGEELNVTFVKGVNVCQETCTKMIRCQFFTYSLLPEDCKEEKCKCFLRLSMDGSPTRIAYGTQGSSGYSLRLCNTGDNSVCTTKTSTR
Answer each item with its documented pIC50.
One number for each entry, as −log10 of the molar value.

Here is how some molecules turned out for pIC50.
>>> measurement("O=C(NCc1ncc2cc[nH]c2c1F)c1cnn(Cc2ccc(Cn3ccccc3=O)cc2)c1")
8.59
>>> measurement("COc1ccnc(CNC(=O)c2cn(Cc3ccc(Cn4ccccc4=O)cc3)nc2NC2(C)COC2)c1F")
8.55
>>> measurement("CC[C@@H](COC)OCc1nn(Cc2ccc(Cn3ccccc3=O)cc2)cc1C(=O)NCc1nccc(OC)c1F")
6.95

Please turn your attention to the following entry.
The reported pIC50 of the molecule COCc1nn(Cc2ccc(Cn3cc(F)ccc3=O)cc2)cc1C(=O)NCc1c(C)cc(N)nc1C was 9.76

---

target: plasma kallikrein (PKa) (Homo sapiens, UniProt P03952); construct: purchased R & D 2497-SE; assay: Inhibitory activity against plasma kallikrein in vitro (fluorescence intensity enzyme assay, Pro-Phe-Arg-AMC substrate); type: biochemical; settings: plasma kallikrein enzyme assay, Pro-Phe-Arg-AMC substrate; read-out: PKa IC50
Answer each item with its documented IC50.
Answers are plain numbers, in nM.

// known answers, use as guide
>>> measurement("N=C(N)c1ccc(CNC(=O)c2cn(Cc3ccc(CC4CC4)cc3)nc2C(F)(F)F)c(F)c1")
56
>>> measurement("N=C(N)c1ccc(CNC(=O)c2cnn(Cc3ccc(Cn4ccccc4=O)cc3)c2)cn1")
0.79
>>> measurement("N=C(N)c1ccc(CNC(=O)c2cnn(Cc3cnc(N4CC5C(C4)C5(F)F)c(F)c3)c2)cc1 (centres unmarked)")
0.06

Quick one: give me IC50 for each item below, same order please.
1. Cc1cc(N)nc(C)c1CNC(=O)c1nc(Cc2ccc(Cn3ccccc3=O)cc2)ns1
2. N=C(N)c1ccc(CNC(=O)c2cn(Cc3ccc(Oc4ccccc4)cc3)nc2C(F)(F)F)cc1
3. COc1ccnc(CNC(=O)c2cn(Cc3ccc(Cn4ccccc4=O)cc3)nc2-c2cnccn2)c1F
4. CCc1c(N)nc(C)c(CNC(=O)c2cnn(Cc3ccc(Cn4ccccc4=O)cc3)c2)c1C

Output:
[64.7, 4.47, 24.9, 0.18]

---

molecular target: plasma kallikrein (PKa) (Homo sapiens, UniProt P03952); construct: purchased R & D 2497-SE; test: Inhibitory activity against plasma kallikrein in vitro (fluorescence intensity enzyme assay, Pro-Phe-Arg-AMC substrate); type: biochemical; details: plasma kallikrein enzyme assay, Pro-Phe-Arg-AMC substrate; read-out: PKa IC50
measurement_kind: pIC50
Numbers only, as −log10 of the molar value.

Before answering, review these 5 worked examples.
>>> measurement("COCc1nn(Cc2ccc(Cn3ccccc3=O)cc2)cc1C(=O)NCc1ncc2ccn(C)c2c1F")
8.67
>>> measurement("Cc1cc(N)nc(C)c1CNC(=O)c1nnc(Cc2ccc(Cn3ccccc3=O)cc2)[nH]1")
9.41
>>> measurement("COCc1nn(Cc2ccc(Cn3ccccc3=O)cc2)cc1C(=O)N[C@@H]1CCc2c1ncn2C")
8.73
>>> measurement("Cn1cc(F)c2cnc(CNC(=O)c3cnn(Cc4ccc(Cn5ccccc5=O)cc4)c3)c(F)c21")
7.99
>>> measurement("O=C(NCc1nccc(-n2nccn2)c1F)c1cn(Cc2ccc(Cn3ccccc3=O)cc2)nc1C1COC1")
7.05

Take each entry in turn and give its pIC50.
1. Cc1cc(N)nc(C)c1CNC(=O)c1cc(Cc2ccc(Cn3ccccc3=O)cc2)cn1C
2. COCc1nn(Cc2ccc(Oc3ccccc3)cc2)cc1C(=O)NCc1ccc2nccn2c1

Output:
1: 9.92; 2: 6.48

---

target: plasma kallikrein (PKa) (Homo sapiens); construct: purchased R & D 2497-SE; test: Inhibitory activity against plasma kallikrein in vitro (fluorescence intensity enzyme assay, Pro-Phe-Arg-AMC substrate); type: biochemical; conditions: plasma kallikrein enzyme assay, Pro-Phe-Arg-AMC substrate; read-out: PKa IC50
measurement_kind: IC50 (nM)
Give bare numbers, in nM.

>>> measurement("COCC1(F)CN(c2nn(Cc3ccc(Cn4ccccc4=O)cc3)cc2C(=O)NCc2nccc(OC)c2F)C1")
11.9

Items follow; give IC50 for each.
1. Cc1cc(N)nc(C)c1CNC(=O)c1noc(Cc2ccc(Cn3ccccc3=O)cc2)n1
2. COc1ccc(F)c(CNC(=O)c2cn(Cc3ccc(Cn4cc(F)ccc4=O)cc3)nc2OCCF)c1F
3. O=C(NCc1ncc2cc[nH]c2c1F)c1cn(Cc2ccc(Cn3ccccc3=O)cc2)nc1C(F)(F)F
4. COc1ccnc(CNC(=O)c2cn(Cc3ccc(Cn4ccccc4=O)cc3)nc2N2CC3(COC3)C2)c1F
5. COc1ccnc(CNC(=O)c2cn(Cc3ccc(Cn4ccccc4=O)cc3)nc2COC2CCOCC2)c1F
6. Cc1cc2nccn2c(C)c1CNC(=O)c1cn(Cc2ccc(N3CC4C(C3)C4(F)F)cc2C#N)nc1C(F)(F)F (stereo not drawn)
7. COCc1nn(Cc2c(F)c(F)c(Cn3cc(F)ccc3=O)c(F)c2F)cc1C(=O)NCc1c(C)cc(N)nc1C

Output:
1: 0.38; 2: 10.9; 3: 1.9; 4: 11.5; 5: 16.3; 6: 1.23; 7: 2.78

Batch request: IC50 for each of the following compounds.
1. CC(C)Cc1ccc(Cn2cc(C(=O)NCc3ccc(C(=N)N)cc3)cn2)cc1
2. COc1ccc(F)c(CNC(=O)c2cn(Cc3ccc(Cn4ccccc4=O)cc3)nc2CN2C(=O)CCC2=O)c1F
3. Cc1cn2cncc2c(C)c1CNC(=O)c1cn(Cc2ccc(Cn3ccccc3=O)cc2)nc1C(F)(F)F
4. Cn1ccc2cnc(CNC(=O)c3cnn(Cc4ccc(Cn5ccccc5=O)cc4)c3)c(F)c21

Output:
1: 2; 2: 2.85; 3: 0.53; 4: 2.23

---

Exercise: state measured IC50 for each of the compounds provided.
target: FXIa (Homo sapiens, UniProt P03951); test: Inhibitory activity against FXIa in vitro (biochemical assay); conditions: values given in µM
Sequence (P03951 388-625 limits assumed): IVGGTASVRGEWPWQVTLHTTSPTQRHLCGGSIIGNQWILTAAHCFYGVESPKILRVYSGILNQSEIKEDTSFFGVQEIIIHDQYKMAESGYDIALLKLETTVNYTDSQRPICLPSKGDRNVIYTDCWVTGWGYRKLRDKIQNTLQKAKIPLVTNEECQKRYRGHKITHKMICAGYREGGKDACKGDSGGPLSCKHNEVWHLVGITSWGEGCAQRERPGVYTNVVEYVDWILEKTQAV
Sequence (P03951 19-387 partner limits assumed): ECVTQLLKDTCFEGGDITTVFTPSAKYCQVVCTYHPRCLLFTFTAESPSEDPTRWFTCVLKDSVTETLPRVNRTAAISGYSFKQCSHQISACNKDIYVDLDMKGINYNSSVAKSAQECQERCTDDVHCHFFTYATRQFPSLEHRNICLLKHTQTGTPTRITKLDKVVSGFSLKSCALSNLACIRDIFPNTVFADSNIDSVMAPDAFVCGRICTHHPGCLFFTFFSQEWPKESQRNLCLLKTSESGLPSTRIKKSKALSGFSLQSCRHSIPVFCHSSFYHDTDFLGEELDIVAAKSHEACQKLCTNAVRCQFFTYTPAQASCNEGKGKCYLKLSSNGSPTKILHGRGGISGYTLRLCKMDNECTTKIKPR

// below: answered compounds
>>> measurement("Cc1cn2cncc2c(C)c1CNC(=O)c1cn(Cc2ccc(Cn3ccccc3=O)cc2)nc1C(F)(F)F")
"> 10 µM"
>>> measurement("Cn1ccc2cnc(CNC(=O)c3cn(Cc4ccc(Cn5ccccc5=O)cc4)nc3C3COC3)c(F)c21")
"> 10 µM"
>>> measurement("Cc1cc(N)nc(C)c1CNC(=O)c1ncn(Cc2c(F)c(F)c(Cn3ccccc3=O)c(F)c2F)n1")
"> 10 µM"
>>> measurement("Cn1cnc2c1CC[C@H]2NC(=O)c1cn(Cc2cn3cc(C4CC4)ccc3n2)nn1")
"> 10 µM"
>>> measurement("O=C(NCc1ncc2cc[nH]c2c1F)c1cnn(Cc2ccc(Cn3ccccc3=O)cc2)c1")
"> 10 µM"

Take each entry in turn and give its IC50.
1. Cc1cc2nccn2c(C)c1CNC(=O)c1cn(Cc2ccc(Cn3ccccc3=O)cc2)nc1C(F)(F)F
2. Cc1cc(N)nc(C)c1CNC(=O)c1ccn(Cc2ccc(Cn3ccccc3=O)cc2)c1
3. Cc1nc(N)ccc1CNC(=O)c1ncn(Cc2ccc(Cn3ccccc3=O)cc2)n1
4. Cc1nc(C)n(Cc2ccc(Cn3cc(C(=O)NCc4ccc(C(=N)N)cc4F)cn3)cc2)n1
5. Cc1cc(N)nc(C)c1CNC(=O)c1ncn(Cc2cc(Cl)c(Cn3ccccc3=O)cc2Cl)n1
6. N#Cc1cc(N2CC3C(C2)C3(F)F)ccc1Cn1cnc(C(=O)NC2CCc3cc(N)ncc32)n1 (single isomer, unassigned)
7. N=C(N)c1ccc(CNC(=O)c2cnn(Cc3ccc(CC4CC4)cc3)c2C(F)(F)F)cc1

Output:
["> 10 µM", "> 10 µM", "> 10 µM", "> 10 µM", "> 10 µM", "> 10 µM", "> 10 µM"]

---

molecular target: plasma kallikrein (PKa) (Homo sapiens, UniProt P03952); construct: purchased R & D 2497-SE; assay: Inhibitory activity against plasma kallikrein in vitro (fluorescence intensity enzyme assay, Pro-Phe-Arg-AMC substrate); assay type: biochemical; details: plasma kallikrein enzyme assay, Pro-Phe-Arg-AMC substrate; read-out: PKa IC50
Field: log10 of IC50. Provide a value for each of the compounds that follow.
// do not treat as linear: log10 of IC50, unit nM

Guide cases for log10 of IC50, answers given:
>>> measurement("Cc1cc(N)nc(C)c1CNC(=O)c1coc(Cc2cn3cc(C4CC4)ccc3n2)n1 [Compound 19]")
-0.20
>>> measurement("O=C(NCc1nccc(NC2COC2)c1F)c1cn(Cc2ccc(Cn3ccccc3=O)cc2)nc1N1CC(F)(F)C1 [Compound 332]")
2.73
>>> measurement("COc1ccnc(CNC(=O)c2cn(Cc3ccc(Cn4ccccc4=O)cc3)nc2COCC2(F)COC2)c1F [Compound 235]")
0.52
>>> measurement("N=C(N)c1ccc(CNC(=O)c2cnn(Cc3ccc(CC4CC4)cc3)c2C(F)(F)F)cc1 [Compound 109]")
-0.46
>>> measurement("COc1ccnc(CNC(=O)c2cn(Cc3ccc(Cn4ccccc4=O)cc3)nc2C2CC2(F)F)c1F (stereo not shown) [Compound 216]")
0.42

Hi there! I need log10 of IC50 for each item below, if you can.
1. COc1ccnc(CNC(=O)c2cn(Cc3ccc(Cn4cc(F)ccc4=O)cc3)nc2COCC2(C)COC2)c1F [Compound 286]
2. COc1ccc(F)c(CNC(=O)c2cn(Cc3ccc(Cn4cc(F)ccc4=O)cc3)nc2[C@@H](C)C2COC2)c1F [Compound 180]

Output:
1.03
0.90
